Values from ChEMBL document CHEMBL1125034

Items are presented alongside their recorded Log koff.
Tested On: Neutrophil elastase (Homo sapiens) (UniProt P08246)
Sequence (P08246 whole entry): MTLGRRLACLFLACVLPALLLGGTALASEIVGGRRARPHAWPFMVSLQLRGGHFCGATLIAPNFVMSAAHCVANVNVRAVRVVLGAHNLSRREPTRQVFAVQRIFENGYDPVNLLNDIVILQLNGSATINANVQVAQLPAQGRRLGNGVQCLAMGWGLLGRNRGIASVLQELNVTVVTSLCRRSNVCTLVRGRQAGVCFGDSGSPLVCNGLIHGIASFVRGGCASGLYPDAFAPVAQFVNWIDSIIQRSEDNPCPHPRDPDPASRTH
Method Description: Component deacylation rate constant for interaction with human leukocyte elastase
Quantity Measured: Log koff

{"Smiles Repr": "CC(C)Nc1nc2cc(N(C)C)ccc2c(=O)o1", "Experimental Value": -3.32}
{"Smiles Repr": "COc1cc2nc(SCc3ccccc3)oc(=O)c2cc1OC", "Experimental Value": -1.91}
{"Smiles Repr": "COC(=O)[C@@H](CC(C)C)Nc1nc2ccccc2c(=O)o1", "Experimental Value": -2.85}
{"Smiles Repr": "O=c1oc(/C=C/c2ccccc2)nc2ccccc12", "Experimental Value": -2.5}
{"Smiles Repr": "CNc1nc2cccc(C)c2c(=O)o1", "Experimental Value": -0.82}
{"Smiles Repr": "CCCc1cc(N(C)C)cc2nc(NC(C)C)oc(=O)c12", "Experimental Value": -3.74}
{"Smiles Repr": "NC(=O)[C@H](Cc1ccccc1)Nc1nc2ccccc2c(=O)o1", "Experimental Value": -3.42}
{"Smiles Repr": "CC(C)Nc1nc2ccccc2c(=O)o1", "Experimental Value": -2.51}
{"Smiles Repr": "NC(=O)[C@H](Cc1ccccc1)NC(=O)[C@@H]1CCCN1c1nc2ccccc2c(=O)o1", "Experimental Value": -3.27}
{"Smiles Repr": "CCCNC(=O)Nc1ccc2c(=O)oc(NC(C)C)nc2c1", "Experimental Value": -1.77}
{"Smiles Repr": "Cc1cccc2nc(OCC(C)C)oc(=O)c12", "Experimental Value": -4.95}
{"Smiles Repr": "CC(C)C[C@H](NC(=O)[C@@H]1CCCN1c1nc2ccccc2c(=O)o1)C(=O)NCC(N)=O", "Experimental Value": -3.64}

###

Items are presented alongside their recorded pKi.
Tested On: Neutrophil elastase (Homo sapiens, UniProt P08246)
Sequence (P08246 whole entry): as above
Method Description: Inhibition of human leukocyte elastase
pKi: −log10 of the molar value.

{"Compound": "CCOc1nc2ccccc2c(=O)o1", "pKi": 8.19}
{"Compound": "CCc1cc(N)cc2nc(N3CCCC3C(=O)N[C@@H](CC(C)C)C(N)=O)oc(=O)c12 (some centres not stated)", "pKi": 6.94}
{"Compound": "CC(C)Sc1nc2ccccc2c(=O)o1", "pKi": 8.11}
{"Compound": "CC(C)[C@H](NC(=O)C1CCCN1c1nc2ccccc2c(=O)o1)C(N)=O (some centres not stated)", "pKi": 6.33}
{"Compound": "CCNc1nc2ccccc2c(=O)o1", "pKi": 7.28}
{"Compound": "O=c1oc(OCc2ccccc2)nc2ccccc12", "pKi": 7.25}
{"Compound": "CSc1nc2ccccc2c(=O)o1", "pKi": 7.68}
{"Compound": "Cc1cccc2nc(NCCC(C)C)oc(=O)c12", "pKi": 5.81}
{"Compound": "CCCNC(=O)Nc1ccc2c(=O)oc(NC(C)C)nc2c1", "pKi": 5.87}
{"Compound": "O=c1oc(C(F)(F)F)nc2ccccc12", "pKi": 6.77}
{"Compound": "COC(=O)[C@H](CC(C)C)Nc1nc2ccccc2c(=O)o1", "pKi": 6.77}
{"Compound": "CCOC(=O)CSc1nc2ccccc2c(=O)o1", "pKi": 7.14}
{"Compound": "CNc1nc2c(C)cccc2c(=O)o1", "pKi": 4.01}
{"Compound": "COC(=O)C(CC(C)C)Nc1nc2ccccc2c(=O)o1 (configuration not stated)", "pKi": 7.18}
{"Compound": "Cc1cccc2nc(NC3CCCC3)oc(=O)c12", "pKi": 6.70}
{"Compound": "C[C@H](NC(=O)[C@@H]1CCCN1c1nc2ccccc2c(=O)o1)C(N)=O", "pKi": 6.63}
{"Compound": "Cc1cccc2c(=O)oc(NCc3ccccc3)nc12", "pKi": 5.70}
{"Compound": "Cc1cccc2nc(OCC(C)C)oc(=O)c12", "pKi": 8.80}
{"Compound": "Cc1cccc2c(=O)oc(C(C)(C)C)nc12", "pKi": 4.26}
{"Compound": "Cc1cccc2nc(CBr)oc(=O)c12", "pKi": 6.82}
{"Compound": "COC(=O)[C@H](CC(C)C)Nc1nc2cccc(C)c2c(=O)o1", "pKi": 6.60}
{"Compound": "CCSc1nc2cc(CC)ccc2c(=O)o1", "pKi": 7.68}
{"Compound": "O=c1oc(NCCc2ccccc2)nc2ccccc12", "pKi": 5.77}
{"Compound": "NC(=O)C1CCCN1c1nc2ccccc2c(=O)o1 (configuration not stated)", "pKi": 6.75}
{"Compound": "CCCCN(CCCC)c1nc2ccccc2c(=O)o1", "pKi": 5.34}
{"Compound": "COc1cc2nc(C)oc(=O)c2cc1OC", "pKi": 3.08}
{"Compound": "CCCCN(CCCC)c1nc2cccc(CC)c2c(=O)o1", "pKi": 6.75}

###

Tested On: Neutrophil elastase (Homo sapiens)
Method Description: Inhibition of human leukocyte elastase
pKi: −log10 of the molar value.
Items are presented alongside their recorded pKi.

{"Smiles Repr": "Cc1ccc2nc(C(F)(F)F)oc(=O)c2c1", "Tested On": "Neutrophil elastase (Homo sapiens)", "pKi": 6.29}
{"Smiles Repr": "CCOc1nc2cc(N)cc(CC)c2c(=O)o1", "Tested On": "Neutrophil elastase (Homo sapiens)", "pKi": 8.00}
{"Smiles Repr": "COC(=O)[C@H](Nc1nc2ccccc2c(=O)o1)c1ccccc1", "Tested On": "Neutrophil elastase (Homo sapiens)", "pKi": 7.56}
{"Smiles Repr": "CC(C)(C)c1nc2ccccc2c(=O)o1", "Tested On": "Neutrophil elastase (Homo sapiens)", "pKi": 5.05}
{"Smiles Repr": "CCSc1nc2ccc(NC(C)=O)cc2c(=O)o1", "Tested On": "Neutrophil elastase (Homo sapiens)", "pKi": 5.84}
{"Smiles Repr": "CCCCN(C(C)=O)c1nc2ccccc2c(=O)o1", "Tested On": "Neutrophil elastase (Homo sapiens)", "pKi": 8.00}
{"Smiles Repr": "CCSc1nc2ccc(N(C)C)cc2c(=O)o1", "Tested On": "Neutrophil elastase (Homo sapiens)", "pKi": 6.47}

###

Tested On: Neutrophil elastase (Homo sapiens) (UniProt P08246)
Method Description: Component deacylation rate constant for interaction with human leukocyte elastase
Quantity Measured: Log koff

{"Smiles Repr": "CCOc1nc2cccc(C(Br)Br)c2c(=O)o1", "Quantity Measured": "Log koff", "Experimental Value": -2.33}
{"Smiles Repr": "CCc1cccc2c(=O)oc(NC(C)C)nc12", "Quantity Measured": "Log koff", "Experimental Value": -1.62}
{"Smiles Repr": "Cc1cccc2nc(C(F)(F)F)oc(=O)c12", "Quantity Measured": "Log koff", "Experimental Value": -2.43}
{"Smiles Repr": "Cc1cc(N(C)C)cc2nc(NC(C)C)oc(=O)c12", "Quantity Measured": "Log koff", "Experimental Value": -3.89}
{"Smiles Repr": "CC(=O)NCc1nc2ccccc2c(=O)o1", "Quantity Measured": "Log koff", "Experimental Value": -2.88}
{"Smiles Repr": "COc1cc2nc(SCc3c[nH]cn3)oc(=O)c2cc1OC", "Quantity Measured": "Log koff", "Experimental Value": -2.12}
{"Smiles Repr": "CCOC(=O)[C@H](C)Nc1nc2ccccc2c(=O)o1", "Quantity Measured": "Log koff", "Experimental Value": -2.65}

###

Items are presented alongside their recorded Log kOH-.
Method Description: Alkaline hydrolysis rate of the compound
Format: ADME
Quantity Measured: Log kOH-

{"Smiles Repr": "O=c1oc(-c2ccco2)nc2ccccc12", "Quantity Measured": "Log kOH-", "Experimental Value": 1.94}
{"Smiles Repr": "CC(C)(C)c1nc2ccccc2c(=O)o1", "Quantity Measured": "Log kOH-", "Experimental Value": 1.38}
{"Smiles Repr": "COc1cc2nc(SCc3ccccc3)oc(=O)c2cc1OC", "Quantity Measured": "Log kOH-", "Experimental Value": 0.96}
{"Smiles Repr": "CCOc1nc2cc(N)ccc2c(=O)o1", "Quantity Measured": "Log kOH-", "Experimental Value": 0.2}
{"Smiles Repr": "CCOc1nc2cccc(C(C)C)c2c(=O)o1", "Quantity Measured": "Log kOH-", "Experimental Value": 0.96}
{"Smiles Repr": "CCSc1nc2cccc(CC)c2c(=O)o1", "Quantity Measured": "Log kOH-", "Experimental Value": 1.37}
{"Smiles Repr": "CCc1cccc2nc(N[C@@H](CC(C)C)C(=O)OC)oc(=O)c12", "Quantity Measured": "Log kOH-", "Experimental Value": 0.48}

###

Method Description: Alkaline hydrolysis rate of the compound
Format: ADME

{"Compound": "O=c1oc(C(F)(F)F)nc2ccccc12", "Log kOH-": 3.52}
{"Compound": "CN(C)c1ccc(CNc2nc3ccccc3c(=O)o2)cc1", "Log kOH-": 1.81}
{"Compound": "O=c1oc(OCc2ccccc2)nc2ccccc12", "Log kOH-": 1.99}
{"Compound": "CCCCNc1nc2cccc(C)c2c(=O)o1", "Log kOH-": 0.41}
{"Compound": "CC(C)N(c1nc2ccccc2c(=O)o1)C(C)C", "Log kOH-": 0.79}
{"Compound": "COc1cc2nc(C)oc(=O)c2cc1OC", "Log kOH-": 0.53}
{"Compound": "CCOc1nc2cccc(C(Br)Br)c2c(=O)o1", "Log kOH-": 2.5}
{"Compound": "CC(C)C[C@H](NC(=O)C1CCCN1c1nc2ccccc2c(=O)o1)C(N)=O (stereo partly drawn)", "Log kOH-": 1.27}
{"Compound": "Cc1cc(N)cc2nc(NC(C)C)oc(=O)c12", "Log kOH-": -1.09}
{"Compound": "O=c1oc(NCc2ccccc2)nc2ccccc12", "Log kOH-": 1.12}
{"Compound": "O=c1oc(NCCc2ccccc2)nc2ccccc12", "Log kOH-": 1.15}
{"Compound": "O=c1oc(SCc2ccccc2)nc2ccccc12", "Log kOH-": 2.33}
{"Compound": "CCCCNc1nc2c(C)cccc2c(=O)o1", "Log kOH-": 0.86}
